Molecular target: Nav1.7 (or SCN9A) channel (Homo sapiens)
Construct: expressed in transfected cells
Sequence (Q15858 whole entry): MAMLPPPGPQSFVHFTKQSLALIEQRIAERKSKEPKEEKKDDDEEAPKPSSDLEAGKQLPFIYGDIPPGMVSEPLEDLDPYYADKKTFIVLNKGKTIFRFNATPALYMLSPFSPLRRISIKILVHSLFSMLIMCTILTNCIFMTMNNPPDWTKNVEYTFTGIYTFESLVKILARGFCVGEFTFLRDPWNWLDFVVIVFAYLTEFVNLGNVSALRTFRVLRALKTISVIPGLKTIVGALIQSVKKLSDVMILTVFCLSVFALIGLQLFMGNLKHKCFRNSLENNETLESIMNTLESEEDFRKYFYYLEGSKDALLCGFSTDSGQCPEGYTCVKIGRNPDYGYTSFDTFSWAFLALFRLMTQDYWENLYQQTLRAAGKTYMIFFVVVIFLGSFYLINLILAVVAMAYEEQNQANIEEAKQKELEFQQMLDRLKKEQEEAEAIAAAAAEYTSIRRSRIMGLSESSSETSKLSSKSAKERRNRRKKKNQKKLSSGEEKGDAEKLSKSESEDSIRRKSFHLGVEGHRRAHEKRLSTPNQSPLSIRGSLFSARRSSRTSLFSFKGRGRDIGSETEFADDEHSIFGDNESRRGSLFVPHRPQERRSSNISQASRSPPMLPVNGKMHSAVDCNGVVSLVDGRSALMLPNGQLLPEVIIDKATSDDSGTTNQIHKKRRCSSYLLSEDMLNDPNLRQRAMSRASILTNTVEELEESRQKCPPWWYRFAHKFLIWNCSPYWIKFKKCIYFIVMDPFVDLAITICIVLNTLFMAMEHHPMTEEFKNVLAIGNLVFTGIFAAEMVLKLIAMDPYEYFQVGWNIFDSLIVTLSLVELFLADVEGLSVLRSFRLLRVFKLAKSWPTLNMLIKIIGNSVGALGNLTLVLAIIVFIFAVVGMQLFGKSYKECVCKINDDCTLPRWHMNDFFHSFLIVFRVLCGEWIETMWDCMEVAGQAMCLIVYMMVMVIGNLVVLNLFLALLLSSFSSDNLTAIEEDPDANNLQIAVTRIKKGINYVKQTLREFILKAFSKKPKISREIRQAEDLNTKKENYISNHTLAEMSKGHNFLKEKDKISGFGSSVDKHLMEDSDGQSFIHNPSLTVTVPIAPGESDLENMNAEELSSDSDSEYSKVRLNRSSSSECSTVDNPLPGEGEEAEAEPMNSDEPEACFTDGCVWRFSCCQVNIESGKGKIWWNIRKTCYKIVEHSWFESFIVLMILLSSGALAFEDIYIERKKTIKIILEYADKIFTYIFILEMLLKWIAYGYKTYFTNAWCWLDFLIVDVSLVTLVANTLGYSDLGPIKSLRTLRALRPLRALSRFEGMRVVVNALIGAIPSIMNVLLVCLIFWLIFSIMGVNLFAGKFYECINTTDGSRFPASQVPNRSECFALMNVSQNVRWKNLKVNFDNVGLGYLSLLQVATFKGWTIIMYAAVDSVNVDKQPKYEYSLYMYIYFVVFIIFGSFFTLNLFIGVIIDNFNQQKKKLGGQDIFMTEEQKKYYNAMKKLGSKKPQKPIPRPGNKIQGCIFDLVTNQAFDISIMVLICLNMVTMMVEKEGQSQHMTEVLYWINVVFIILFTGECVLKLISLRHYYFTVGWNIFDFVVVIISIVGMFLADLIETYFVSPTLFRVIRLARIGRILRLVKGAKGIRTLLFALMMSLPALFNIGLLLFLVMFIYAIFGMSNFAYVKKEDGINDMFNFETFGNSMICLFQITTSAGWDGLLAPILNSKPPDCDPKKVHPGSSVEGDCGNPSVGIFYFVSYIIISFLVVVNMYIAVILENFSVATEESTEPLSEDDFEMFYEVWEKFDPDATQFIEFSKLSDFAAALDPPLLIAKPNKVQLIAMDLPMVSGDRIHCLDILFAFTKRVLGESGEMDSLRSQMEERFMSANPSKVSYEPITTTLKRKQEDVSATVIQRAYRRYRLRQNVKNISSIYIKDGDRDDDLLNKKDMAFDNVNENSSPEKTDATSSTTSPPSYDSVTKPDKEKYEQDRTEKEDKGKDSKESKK
Assay: Nav1.7 (hSCN9A) electrophysiology assay, PatchXpress platform
Assay type: cell-based
Conditions: estimated IC50 from single point electrophysiology data, HEK cells stably expressing hSCN9A, held at V1/2 of inactivation, read-out: Nav1.7 EIC50
pIC50: −log10 of the molar value.
In this section we review reported pIC50 values for a set of compounds.

compound | studySystem | comparator | pIC50
CS(=O)(=O)NC(=O)c1ccc(COc2ccc(C#N)cc2)cc1 [Example 17] | Nav1.7 (or SCN9A) channel (Homo sapiens) | = | 5.08
COc1ccccc1COc1ccc(C(=O)NS(C)(=O)=O)cc1 [Example 169] | Nav1.7 (or SCN9A) channel (Homo sapiens) | < | 5.52
CS(=O)(=O)NC(=O)c1cc(F)c(COc2ccc(F)c(F)c2)cc1F [Example 48] | Nav1.7 (or SCN9A) channel (Homo sapiens) | = | 5.96
Cc1ccc(Cl)cc1OCc1cc(F)c(C(=O)NS(C)(=O)=O)cc1F [Example 100] | Nav1.7 (or SCN9A) channel (Homo sapiens) | = | 6.41
CS(=O)(=O)NC(=O)c1cc(Cl)c(COc2ccc(Cl)c(Cl)c2)cc1F [Example 1] | Nav1.7 (or SCN9A) channel (Homo sapiens) | = | 8.02
CS(=O)(=O)NC(=O)c1ccc(OCc2ccc(Cl)c(F)c2)cc1 [Example 178] | Nav1.7 (or SCN9A) channel (Homo sapiens) | = | 6.09
CS(=O)(=O)NC(=O)c1ccc(COc2ccc(C3CCNCC3)cc2)cc1 [Example 36] | Nav1.7 (or SCN9A) channel (Homo sapiens) | < | 5.52
COc1ccc(Cl)cc1COc1cc(F)c(C(=O)NS(C)(=O)=O)cc1F [Example 230] | Nav1.7 (or SCN9A) channel (Homo sapiens) | = | 5.66
Cn1nc(C(F)(F)F)cc1-c1ccc(OCc2ccc(C(=O)NS(C)(=O)=O)cc2)cc1 [Example 4] | Nav1.7 (or SCN9A) channel (Homo sapiens) | = | 5.92
CS(=O)(=O)NC(=O)c1ccc(OCc2ccc(F)c(F)c2)cc1 [Example 177] | Nav1.7 (or SCN9A) channel (Homo sapiens) | = | 5.68
Cc1cc(OCc2cc(F)c(C(=O)NS(C)(=O)=O)cc2F)cc(C)c1C#N [Example 162] | Nav1.7 (or SCN9A) channel (Homo sapiens) | = | 6.14
Cc1ccc(COc2cc(F)c(C(=O)NS(C)(=O)=O)cc2F)cc1Cl [Example 228] | Nav1.7 (or SCN9A) channel (Homo sapiens) | = | 5.92
Cc1cccc(COc2cc(F)c(C(=O)NS(C)(=O)=O)cc2F)c1 [Example 217] | Nav1.7 (or SCN9A) channel (Homo sapiens) | < | 6.00
COc1ccc(OCc2cc(F)c(C(=O)NS(C)(=O)=O)cc2F)c(C#N)c1 [Example 146] | Nav1.7 (or SCN9A) channel (Homo sapiens) | < | 6.00
CS(=O)(=O)NC(=O)c1cc(F)c(COc2cc(C(F)(F)F)ccc2F)cc1F [Example 123] | Nav1.7 (or SCN9A) channel (Homo sapiens) | = | 6.07
COc1ccc(C)cc1COc1cc(F)c(C(=O)NS(C)(=O)=O)cc1F [Example 219] | Nav1.7 (or SCN9A) channel (Homo sapiens) | < | 6.00
Cc1nccn1-c1ccc(COc2ccc(C(=O)NS(C)(=O)=O)cc2)cc1 [Example 22] | Nav1.7 (or SCN9A) channel (Homo sapiens) | < | 5.52
CS(=O)(=O)NC(=O)c1ccc(OCc2ccc(Cl)cc2Cl)cc1 [Example 190] | Nav1.7 (or SCN9A) channel (Homo sapiens) | = | 6.21
COc1cc(OCc2ccc(Cl)c(Cl)c2)ccc1C(=O)NS(C)(=O)=O [Example 12] | Nav1.7 (or SCN9A) channel (Homo sapiens) | = | 4.92
CCc1ccc(OCc2ccc(C(=O)NS(C)(=O)=O)c(F)c2)cc1 [Example 40] | Nav1.7 (or SCN9A) channel (Homo sapiens) | = | 6.25
CS(=O)(=O)NC(=O)c1cc(F)c(COc2ccc(F)cc2C#N)cc1F [Example 153] | Nav1.7 (or SCN9A) channel (Homo sapiens) | = | 4.92
CS(=O)(=O)NC(=O)c1ccc(OCC2CCCC2)cc1 [Example 191] | Nav1.7 (or SCN9A) channel (Homo sapiens) | = | 5.12
COc1cccc(OCc2ccc(C(=O)NS(C)(=O)=O)cc2)c1 [Example 8] | Nav1.7 (or SCN9A) channel (Homo sapiens) | = | 5.16
CS(=O)(=O)NC(=O)c1ccc(OCc2cccc(C#N)c2)c(Cl)c1 [Example 80] | Nav1.7 (or SCN9A) channel (Homo sapiens) | < | 5.52
Cc1cc(Cl)cc(OCc2cc(F)c(C(=O)NS(C)(=O)=O)cc2F)c1 [Example 105] | Nav1.7 (or SCN9A) channel (Homo sapiens) | = | 7.00
COc1cc(COc2cc(F)c(C(=O)NS(C)(=O)=O)cc2F)cc(OC)c1 [Example 201] | Nav1.7 (or SCN9A) channel (Homo sapiens) | < | 6.00
CS(=O)(=O)NC(=O)c1cc(F)c(COc2ccc(C#N)cc2Cl)cc1F [Example 44] | Nav1.7 (or SCN9A) channel (Homo sapiens) | = | 5.70
CS(=O)(=O)NC(=O)c1ccc(OCc2ccccc2Cl)cc1 [Example 186] | Nav1.7 (or SCN9A) channel (Homo sapiens) | = | 5.14
CS(=O)(=O)NC(=O)c1cc(F)c(OCc2ccccc2F)cc1F [Example 199] | Nav1.7 (or SCN9A) channel (Homo sapiens) | = | 5.62
CN1CCN(c2cccc(OCc3cc(F)c(C(=O)NS(C)(=O)=O)cc3F)c2)CC1 [Example 113] | Nav1.7 (or SCN9A) channel (Homo sapiens) | = | 4.96
CS(=O)(=O)NC(=O)c1ccc(COc2ccc(Cl)c(C(F)(F)F)c2)cc1 [Example 27] | Nav1.7 (or SCN9A) channel (Homo sapiens) | = | 6.42
COc1ccc(COc2cc(F)c(C(=O)NS(C)(=O)=O)cc2F)cc1Cl [Example 68] | Nav1.7 (or SCN9A) channel (Homo sapiens) | = | 5.01
COc1ccc(Cl)cc1COc1ccc(C(=O)NS(C)(=O)=O)cc1 [Example 223] | Nav1.7 (or SCN9A) channel (Homo sapiens) | < | 6.52
CS(=O)(=O)NC(=O)c1cc(F)c(COc2ccc(F)c(F)c2Cl)cc1F [Example 129] | Nav1.7 (or SCN9A) channel (Homo sapiens) | = | 5.72
CCC(C)S(=O)(=O)NC(=O)c1cc(F)c(COc2ccc(Cl)c(Cl)c2)cc1F (stereo not drawn) [Example 23] | Nav1.7 (or SCN9A) channel (Homo sapiens) | = | 6.42
COc1ccc(OCc2cc(F)c(C(=O)NS(C)(=O)=O)cc2F)cc1 [Example 164] | Nav1.7 (or SCN9A) channel (Homo sapiens) | < | 5.52

###

Target: Nav1.7 (or SCN9A) channel (Homo sapiens)
Construct: expressed in transfected cells
Test: Nav1.7 (hSCN9A) electrophysiology assay, PatchXpress platform
Format: cell-based
Details: estimated IC50 from single point electrophysiology data, HEK cells stably expressing hSCN9A, held at V1/2 of inactivation, read-out: Nav1.7 EIC50
pIC50: −log10 of the molar value.

compound | comparator | pIC50
Cc1ccc(OCc2cc(F)c(C(=O)NS(C)(=O)=O)cc2F)cc1C [Example 120] | = | 6.15
CS(=O)(=O)NC(=O)c1cc(F)c(OCc2ccc(Cl)c(C(F)(F)F)c2)cc1F [Example 70] | = | 6.80
CS(=O)(=O)NC(=O)c1cc(Cl)c(OCc2cccc(Cl)c2)cc1F [Example 86] | = | 6.24
Cc1c(OCc2cc(F)c(C(=O)NS(C)(=O)=O)cc2F)ccc(F)c1F [Example 167] | = | 5.59
CS(=O)(=O)NC(=O)c1ccc(COc2ccc(Cl)c(Cl)c2)c(C#N)c1 [Example 69] | = | 6.62
CS(=O)(=O)NC(=O)c1cc(F)c(COc2ccc(Cl)c(C(F)(F)F)c2)cc1F [Example 54] | = | 6.89
CS(=O)(=O)NC(=O)c1ccc(COc2ccc(Cl)c(Cl)c2)cc1 [Example 28] | = | 7.24
CS(=O)(=O)NC(=O)c1ccc(OCc2cccc(Cl)c2Cl)cc1 [Example 189] | = | 5.82
COc1ccc(OCc2cc(F)c(C(=O)NS(C)(=O)=O)cc2F)cc1F [Example 97] | = | 5.82
CS(=O)(=O)NC(=O)c1cc(Cl)c(OCc2ccc(C(F)(F)F)c(Cl)c2)cc1F [Example 58] | = | 7.68
COc1ccc(C)cc1COc1ccc(C(=O)NS(C)(=O)=O)cc1 [Example 210] | < | 6.00
CS(=O)(=O)NC(=O)c1ccc(OCc2c(F)cccc2Cl)cc1 [Example 182] | < | 6.00
COc1ccc(F)c(COc2ccc(C(=O)NS(C)(=O)=O)cc2)c1 [Example 188] | = | 5.60
COc1ccccc1OCc1cc(F)c(C(=O)NS(C)(=O)=O)cc1F [Example 14] | = | 5.09
CS(=O)(=O)NC(=O)c1cc(Cl)c(OCc2ccccc2Cl)cc1F [Example 78] | = | 6.41
CS(=O)(=O)NC(=O)c1cc(F)c(COc2cccc(N3CCCCC3)c2)cc1F [Example 168] | = | 5.51
CS(=O)(=O)NC(=O)c1cc(F)c(COc2ccc(C#N)c(F)c2)cc1F [Example 127] | = | 5.59
CS(=O)(=O)NC(=O)c1ccc(OCc2ccc(F)cc2F)cc1 [Example 204] | = | 5.44
